- Tested on: M. tuberculosis
- protocol-summary: Benzimidazoles activity tested in animals (animal models of infection, Table A)
- Assay type: in vivo, mouse
- condition-summary: Table A
attribute-measured: Efficacy Lung

Example entries and their recorded answers appear below.
| molecule | Efficacy Lung |
| --- | --- |
| CCN(CC)c1cc2[nH]c(C3CCCCC3)nc2cc1NC(=O)c1ccc(OC)cc1 | No |
| CN(C)c1cc2[nH]c(C3CCCCC3)nc2cc1NC(=O)c1ccc(C(F)(F)F)cc1F [SB-P17G-A42] | Yes |
| CN(C)c1cc2[nH]c(C3CCCCC3)nc2cc1NC(=O)c1ccc(OC(F)(F)F)cc1F [SB-P17G-A38] | Yes |
| CCCCOC(=O)Nc1cc2nc(C3CCCCC3)[nH]c2cc1N(CC)CC | Yes |

Kindly consider the entry below.
CN(C)c1cc2nc(C3CCCCC3)[nH]c2cc1NC(=O)c1ccc(OC(F)(F)F)cc1 [SB-P17G-A20] yielded Efficacy Lung of Yes

* * *

- Tested on: Mycobacteria tuberculosis
- protocol-summary: MIC and drug response curve type (Tables A and B)
- Type: cell-based, Mycobacterium tuberculosis
- condition-summary: Table A; in µg/mL
- Procedure: A drug concentration response curve can be generated by graphing the log10 drug concentrations (μg/mL) against the difference in growth between the drug-treated wells and control wells. See FIG. 3C, and FIG. 5 (entries for SB-P23D8 and SB-P26D9). […] MIC values were determined for the benzimidazoles using a modified 96-well microplate Alamar Blue (resazurin) assay (MABA) (see Kumar et al., J. Med. Chem. 2011; 54:374-381; Collins and Franzblau, Antimicrob. Agents Chemother. 1997; 41:1004-1009). […]
Assignment: determine reported MIC for the given compounds.

CCCCOC(=O)Nc1cc2nc(C3CCCCC3)[nH]c2cc1N(CC)CC [SB-P3G2] yielded MIC of 1.25

CN(C)c1cc2[nH]c(C3CCCCC3)nc2cc1NC(=O)c1ccc(OC(F)(F)F)cc1F [SB-P17G-A38] yielded MIC of .156

CN(C)c1cc2nc(C3CCCCC3)[nH]c2cc1NC(=O)c1ccc(OC(F)(F)F)cc1 [SB-P17G-A20] yielded MIC of .31

CN(C)c1cc2[nH]c(C3CCCCC3)nc2cc1NC(=O)c1ccc(OC(F)(F)F)c(F)c1F [SB-P17G-A33] yielded MIC of .5-.625

CCCCOC(=O)Nc1cc2nc(C3CCCCC3)[nH]c2cc1N(C)C [SB-P17G-C2] yielded MIC of .063

O=C(Nc1cc2nc(C3CCCCC3)[nH]c2cc1N1CCCC1)OCc1ccccc1 [SBP8B4] yielded MIC of 3.13

CN(C)c1cc2[nH]c(C3CCCCC3)nc2cc1NC(=O)c1ccc(C(F)(F)F)cc1F [SB-P17G-A42] yielded MIC of .156

COc1ccc(C(=O)Nc2cc3nc(C4CCCCC4)[nH]c3cc2N(C)C)cc1 [SB-P17G-A16] yielded MIC of .31

CCN(CC)c1cc2[nH]c(C3CCCCC3)nc2cc1NC(=O)c1ccc(OC)cc1 [SB-P1G10] yielded MIC of 3.13-6.25

CCCCOC(=O)Nc1cc2nc(C3CCCCC3)[nH]c2cc1N1CCCC1 [SB-P8B2] yielded MIC of .625

* * *

- Test system: M. tuberculosis
- protocol-summary: Benzimidazoles activity tested in animals (animal models of infection, Table A)
- Type: in vivo, mouse
- condition-summary: Table A
attribute-measured: Efficacy Lung

| compound | value |
| --- | --- |
| O=C(Nc1cc2nc(C3CCCCC3)[nH]c2cc1N1CCCC1)OCc1ccccc1 | None |
| CN(C)c1cc2[nH]c(C3CCCCC3)nc2cc1NC(=O)c1ccc(OC(F)(F)F)c(F)c1F [SB-P17G-A33] | Yes |
| COc1ccc(C(=O)Nc2cc3nc(C4CCCCC4)[nH]c3cc2N(C)C)cc1 [SB-P17G-A16] | Yes |

* * *

- Test system: M. tuberculosis
- protocol-summary: Benzimidazoles activity tested in animals (animal models of infection, Table A)
- Format: in vivo, mouse
- condition-summary: Table A
attribute-measured: Efficacy Spleen

| compound | Efficacy Spleen |
| --- | --- |
| CN(C)c1cc2[nH]c(C3CCCCC3)nc2cc1NC(=O)c1ccc(OC(F)(F)F)c(F)c1F [SB-P17G-A33] | Yes |
| CCN(CC)c1cc2[nH]c(C3CCCCC3)nc2cc1NC(=O)c1ccc(OC)cc1 | No |
| CCCCOC(=O)Nc1cc2nc(C3CCCCC3)[nH]c2cc1N(C)C [SB-P17G-C2] | No |
| CN(C)c1cc2nc(C3CCCCC3)[nH]c2cc1NC(=O)c1ccc(OC(F)(F)F)cc1 [SB-P17G-A20] | Yes |
| CN(C)c1cc2[nH]c(C3CCCCC3)nc2cc1NC(=O)c1ccc(OC(F)(F)F)cc1F [SB-P17G-A38] | Yes |

Result for CCCCOC(=O)Nc1cc2nc(C3CCCCC3)[nH]c2cc1N1CCCC1 , tested on M. tuberculosis, Efficacy Spleen: No

Result for CN(C)c1cc2[nH]c(C3CCCCC3)nc2cc1NC(=O)c1ccc(C(F)(F)F)cc1F [SB-P17G-A42] , tested on M. tuberculosis, Efficacy Spleen: Yes

Result for COc1ccc(C(=O)Nc2cc3nc(C4CCCCC4)[nH]c3cc2N(C)C)cc1 [SB-P17G-A16] , tested on M. tuberculosis, Efficacy Spleen: Yes

Result for O=C(Nc1cc2nc(C3CCCCC3)[nH]c2cc1N1CCCC1)OCc1ccccc1 , tested on M. tuberculosis, Efficacy Spleen: None

Result for CCCCOC(=O)Nc1cc2nc(C3CCCCC3)[nH]c2cc1N(CC)CC , tested on M. tuberculosis, Efficacy Spleen: Yes

* * *

Assignment: determine reported Liver Microsome Lability Mouse for the given molecules.
- protocol-summary: Oxidative metabolic lability in mouse liver microsomes
- condition-summary: 5 μM, 1 mg/mL microsomal protein, 20 min
Write the numeric value and append its unit.

CN(C)c1cc2[nH]c(C3CCCCC3)nc2cc1NC(=O)c1ccc(C(F)(F)F)cc1F [SB-P17G-A42] yielded Liver Microsome Lability Mouse of 13%

CCCCOC(=O)Nc1cc2nc(C3CCCCC3)[nH]c2cc1N(C)C [SB-P17G-C2] yielded Liver Microsome Lability Mouse of 96%

CN(C)c1cc2[nH]c(C3CCCCC3)nc2cc1NC(=O)c1ccc(OC(F)(F)F)c(F)c1F [SB-P17G-A33] yielded Liver Microsome Lability Mouse of 17%

CN(C)c1cc2nc(C3CCCCC3)[nH]c2cc1NC(=O)c1ccc(OC(F)(F)F)cc1 [SB-P17G-A20] yielded Liver Microsome Lability Mouse of 45%

CN(C)c1cc2[nH]c(C3CCCCC3)nc2cc1NC(=O)c1ccc(OC(F)(F)F)cc1F [SB-P17G-A38] yielded Liver Microsome Lability Mouse of 4%

* * *

- System: non-replicating M. tuberculosis H37Rv
- protocol-summary: Low oxygen study, non-replicating bacilli
- Assay type: cell-based, Mycobacterium tuberculosis
- condition-summary: vs control
Assignment: determine reported Log10 (CFU) Reduction for the given compounds.
Answer with the value's number alone.

Cc1ncc([N+](=O)[O-])n1CCO [Metronidazole, reference compound] yielded Log10 (CFU) Reduction of 0.52

NNC(=O)c1ccncc1 [Isoniazid, reference compound] yielded Log10 (CFU) Reduction of 0.2

CCCCOC(=O)Nc1cc2nc(C3CCCCC3)[nH]c2cc1N(CC)CC [SB-P3G2] yielded Log10 (CFU) Reduction of 0.48

CCCCOC(=O)Nc1cc2nc(C3CCCCC3)[nH]c2cc1N1CCCC1 [SB-P8B2] yielded Log10 (CFU) Reduction of 0.39

* * *

- Test system: M. tuberculosis H37Rv
- protocol-summary: MIC / dose response by modified microplate Alamar Blue assay (MABA)
- Type: cell-based, Mycobacterium tuberculosis
- condition-summary: FIG. 3
attribute-measured: drug concentration response curve (kill curve) type

| substance-smiles | value |
| --- | --- |
| CCCCOC(=O)Nc1cc2nc(C3CCCCC3)[nH]c2cc1N(CC)CC | sigmoidal kill curves |
| CCCCOC(=O)Nc1cc2nc(C3CCCCC3)[nH]c2cc1N1CCCC1 | sigmoidal kill curves |

* * *

Assignment: determine reported % Growth Reduction for the given compounds.
- System: non-replicating M. tuberculosis H37Rv
- protocol-summary: Low oxygen study, non-replicating bacilli
- Assay type: cell-based, Mycobacterium tuberculosis
- condition-summary: benzimidazoles at 4 μg/mL
Write the numeric value and append its unit.

Cc1ncc([N+](=O)[O-])n1CCO [Metronidazole, reference compound] yielded % Growth Reduction of 70%

CCCCOC(=O)Nc1cc2nc(C3CCCCC3)[nH]c2cc1N(CC)CC [SB-P3G2] yielded % Growth Reduction of 72%

CCCCOC(=O)Nc1cc2nc(C3CCCCC3)[nH]c2cc1N1CCCC1 [SB-P8B2] yielded % Growth Reduction of 59%

NNC(=O)c1ccncc1 [Isoniazid, reference compound] yielded % Growth Reduction of 36%
